B1: library; a variant is named by its letters at N, in order (parent)
chain: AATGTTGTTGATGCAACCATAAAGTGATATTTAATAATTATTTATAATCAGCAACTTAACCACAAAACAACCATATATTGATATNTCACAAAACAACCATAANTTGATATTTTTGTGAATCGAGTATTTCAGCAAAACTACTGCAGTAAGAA

- Variants of: B1
- TEST: relative integration efficiency (T-RL orientation) vs wild-type transposon end (log2 (normalized fold change)); transposon end mutated: left end; higher = more efficient transposition
- EXPERIMENTAL_CONTEXT: with VchCAST RNA-guided transposition machinery (E. coli BL21(DE3) host, lacZ target)
ENDPOINT: relative integration efficiency (log2)

In [3]: df
Out[3]:
                         mutation_annotation  measured_number
 0   TA G24A T30A T76A A77G C87T T104G T113A           -0.232
 1                                    CG G4C           -0.131
 2        TA T76A T78A T84A C87A T104G T113A           -0.245
 3                    CG A65T A66T A67T C68G           -0.247
 4                    CG C18G A19T T20A A21T            -1.37
 5  TA A23G G24T A33T T76A T78A T84A C87A A102T T111C T113C            0.131
 6                                   CG C71G           -0.253
 7                                        CG         -0.00322
 8                    CG T12A G13C C14G A15T           -0.341
 9                              CG A33C A34C            0.167
10                CG T108A A109T T110A T111A           -0.957
11  CG A46T A47T T48G C49T A50G G51A C52G A53C A54G C55G T56A C61A             -1.9
12                              CG C60G C61G           -0.185
13                        CG T28G T82G T108G            -2.28
14             TA A70C T76A T86G T104G T113A           -0.145
15                    CG A1C A2C T3G G4T T5G           -0.197
16                                        TG            0.126
17                         CG A16C G24T T30A             -0.3
18                              CG A69C A70C           -0.537
19                                   CG A37G            0.146
20                                   GG T84A           -0.231
21                   CG C97A C98A A99C T100G            -2.58
22                                   CG A19T           -0.267
23                                   CG A46C           -0.291
24                              CG C94G A95T            -1.23
25                                    CG T5A            -0.22
26                                   CG T45A          -0.0115
27                                   CG A65C            0.247
28  TA A23G G24T A33T T76A T78A T84A C87A T104G T113A           -0.265
29                                   CG C87A           -0.276
30                              CG A77C T78G            0.644
31  CG T39G A40C T41G T43A A44C A47G C49T G51A A53T C55G A58C A59G C60A            -4.12
32                             GG T31A T111A           -0.581
33                                   CG A95T         -0.00814
